Source of measurements: patent US20260242391A1

Tested on: HL-60
Assay Name: HL-60 differentiation potency
Assay type: cell-based
Conditions: Homo sapiens
Label key: Y means EC50 under 20 nM; N means EC50 of 20 nM or more.

Answer whether the compound `C[C@H]1[C@@H](Oc2ccc([C@H](C)C(=O)O)cc2F)O[C@@H]2O[C@@]3(C)CC[C@H]4[C@H](C)CC[C@@H]1[C@@]24OO3` has EC50 strictly less than 20 nM Y

###

Tested on: HL-60
Assay Name: HL-60 differentiation potency
Format: cell-based
Conditions: Homo sapiens
Below is a list of entries, each paired with its recorded pEC50 value.
The quantity pEC50 is defined as the negative base-10 logarithm of the molar concentration.

Here are 4 molecules together with their reported answers.
[
  {
    "Molecule": "C[C@H]1[C@@H](Oc2ccc(CC(=O)NC(C)(C)C)cc2)O[C@@H]2O[C@@]3(C)CC[C@H]4[C@H](C)CC[C@@H]1[C@@]24OO3",
    "pEC50": 7.28
  },
  {
    "Molecule": "C[C@H]1[C@@H](Oc2cccc(CC(=O)O)c2)O[C@@H]2O[C@@]3(C)CC[C@H]4[C@H](C)CC[C@@H]1[C@@]24OO3",
    "pEC50": 6.93
  },
  {
    "Molecule": "C[C@H]1[C@H](OCC2CCC(C(=O)O)CC2)O[C@@H]2O[C@@]3(C)CC[C@H]4[C@H](C)CC[C@@H]1[C@@]24OO3 (stereo partly drawn)",
    "pEC50": 6.11
  },
  {
    "Molecule": "C[C@H]1[C@@H](OC[C@H]2CC[C@@H](CO)CC2)O[C@@H]2O[C@@]3(C)CC[C@H]4[C@H](C)CC[C@@H]1[C@@]24OO3",
    "pEC50": 7.12
  }
]

Form field: pEC50 recorded for `C[C@H]1[C@@H](OCc2ccc(C(=O)O)nc2)O[C@@H]2O[C@@]3(C)CC[C@H]4[C@H](C)CC[C@@H]1[C@@]24OO3` with HL-60 (enter value) 7.05

Now try CC(C)C(C(=O)O)c1ccc(O[C@H]2O[C@@H]3O[C@@]4(C)CC[C@H]5[C@H](C)CC[C@@H]([C@H]2C)[C@@]35OO4)cc1 (stereo partly drawn) . 7.22

Now try `C[C@H]1[C@@H](Oc2ccc(CC(=O)O)c(F)c2)O[C@@H]2O[C@@]3(C)CC[C@H]4[C@H](C)CC[C@@H]1[C@@]24OO3` . 6.65

###

Below is a list of entries, each paired with its recorded EC50 value.
Tested on: HL-60
Assay Name: HL-60 differentiation potency
Format: cell-based
Conditions: Homo sapiens

[
  {
    "Molecule": "C[C@H]1[C@@H](OCc2ccc3c(c2)OC(F)(F)O3)O[C@@H]2O[C@@]3(C)CC[C@H]4[C@H](C)CC[C@@H]1[C@@]24OO3",
    "EC50": "11.1 nM"
  },
  {
    "Molecule": "C[C@H]1[C@@H](OC(=O)CCC(O)c2ccc(Cl)cc2)O[C@@H]2O[C@@]3(C)CC[C@H]4[C@H](C)CC[C@@H]1[C@@]24OO3 (stereo partly drawn)",
    "EC50": "78.6 nM"
  }
]

For the molecule shown here, `C[C@H]1[C@H](OCc2ccc(C(=O)O)c(Cl)c2)O[C@@H]2O[C@@]3(C)CC[C@H]4[C@H](C)CC[C@@H]1[C@@]24OO3` , give the reported EC50. > 20000 nM

Now try C[C@H]1[C@@H](OC2C3CC(C(=O)O)CC32)O[C@@H]2O[C@@]3(C)CC[C@H]4[C@H](C)CC[C@@H]1[C@@]24OO3 (stereo partly drawn) . 4250 nM

Now try `CNC(=O)CCN[C@@H]1O[C@@H]2O[C@@]3(C)CC[C@H]4[C@H](C)CC[C@@H]([C@H]1C)[C@@]24OO3` . 348 nM

Now try `C[C@H]1[C@@H](OCCS(C)(=O)=O)O[C@@H]2O[C@@]3(C)CC[C@H]4[C@H](C)CC[C@@H]1[C@@]24OO3` . > 20000 nM

Now try `C[C@H]1[C@@H](Oc2ccc(C(C)(C)C(=O)O)cc2Cl)O[C@@H]2O[C@@]3(C)CC[C@H]4[C@H](C)CC[C@@H]1[C@@]24OO3` . 40.2 nM

Now try `C[C@H]1[C@H](OCc2cccc(C(=O)O)c2)O[C@@H]2O[C@@]3(C)CC[C@H]4[C@H](C)CC[C@@H]1[C@@]24OO3` . 17500 nM

Now try C[C@H]1[C@@H](Oc2ccc(C3CC(C(=O)O)C3)cc2)O[C@@H]2O[C@@]3(C)CC[C@H]4[C@H](C)CC[C@@H]1[C@@]24OO3 (stereo partly drawn) . 58.1 nM
